molecular target: Granzyme B (Homo sapiens, UniProt P10144); assay: Inhibition against human granzyme B
Sequence (P10144 whole entry): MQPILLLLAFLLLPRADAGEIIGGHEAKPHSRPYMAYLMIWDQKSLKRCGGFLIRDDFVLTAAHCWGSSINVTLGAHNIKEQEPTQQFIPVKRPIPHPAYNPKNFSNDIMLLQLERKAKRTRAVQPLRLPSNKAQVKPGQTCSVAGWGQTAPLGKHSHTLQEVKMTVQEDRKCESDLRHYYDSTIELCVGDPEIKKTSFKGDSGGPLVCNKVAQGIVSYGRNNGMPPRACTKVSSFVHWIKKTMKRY
Residues, ends and D or L forms follow the SMILES beside them.
reported_metric: Ki (nM)

Some molecules with known Ki results, for comparison:
| molecule | tested_target | unit | readout_number |
| --- | --- | --- | --- |
| CC[C@H](C)[C@H](NC(C)=O)C(=O)N[C@@H](CCC(=O)O)C(=O)N1CCC[C@H]1C(=O)N[C@H](C=O)CC(=O)O (Ac-IEPD-aldehyde) | Granzyme B (Homo sapiens, UniProt P10144) | nM | 80 |
| CC[C@H](C)[C@@H](C(=O)N[C@H]1CCc2cccc3c2N(C1=O)[C@H](C(=O)N[C@@H](CC(=O)O)C(=O)c1nc2ccccc2s1)C3)N(C)C(C)=O | Granzyme B (Homo sapiens, UniProt P10144) | nM | 85 |

(a) CC(C)[C@@H](C(=O)N[C@H]1CCc2cccc3c2N(C1=O)[C@H](C(=O)NCc1cn[nH]n1)C3)c1ccccn1
(b) CC[C@H](C)[C@@H](C(=O)N[C@H]1CCc2cccc3c2N(C1=O)[C@H](C(=O)NCc1cn[nH]n1)C3)N(C)C(C)=O
(c) CC[C@H](C)[C@@H](C(=O)N[C@H]1CCc2cccc3c2N(C1=O)[C@H](C(=O)N[C@@H](CC(=O)O)C(=O)c1nnc(-c2ccccc2)o1)C3)N(C)C(C)=O
(d) CC[C@H](C)[C@@H](C(=O)N[C@H]1CCc2cccc3c2N(C1=O)[C@H](C(=O)N[C@@H](CC(=O)O)C(=O)CSCc1ccc(F)cc1)C3)N(C)C(C)=O
// query # desc sort on Ki across 4 molecules I would appreciate it if you listed the labels in the requested order.
// result d, a, b, c
